subjectOfTest: T1, human PDGFRb.hFc (human)
T1 construct: Soluble dimeric construct with human Fc; also called hPDGFRb.hFc
assayExplanation: SPR, mAb captured, 37 C
Would you kindly list koff for each of these binders?
Numbers only, in s⁻¹.

H4H3103S (antibody, human IgG4, V domains shown, human IgG4 Fc (H4H prefix)) VH: EVQLLQSGGGLVQPGGSLRLSCAASGFTFSHYWMSWVRQGPGKGLEWVATIKKDGSESYYVDSVRGRFTISRDNAKNSLYLQMNSLRTEDTAVYYCARDIVTPNVGYYFGMDVWGQGTTVTVSS VL: DIQMTQSPSTLSASVGDRVTITCRASQSISSWLSWYQQKPGKAPKLLIYMASTLESGVPSRFSGSGSGTDFTLTITSLQPDDFATYYCQQSNSYSRTFGHGTKLEIK : 0.000306
H4H3098S (antibody, human IgG4, V domains shown, human IgG4 Fc (H4H prefix)) VH: EVQLVESGGGVVQPGRSLRLSCAASGFTFSNYGMHWVRQAPGKGLEWVTVIWYDGSYKYYADSVKGRFTISRDNSKNRLYLQMNSLRAEDTAVYYCARGELGDAFDIWGQGTMVTVSS VL: DIQMTQSPSTLSASVGDRLTITCRASQSISTWLAWYQQKPGKAPTLLIYKASSLESGVPSRFSGSGSGTDFTLTISSLQPDDFATYYCQQYKTSWTFGQGTKLEIKR : 7.66e-05

Now consider the entry below.
-- ask Indicate the recorded koff value for this binder: H4H3094P (antibody, human IgG4, V domains shown, also called H4H3394P) VH: EVQLVESGGGLVQPGGSLRLSCAASGFTFSSYWMSWVRQAPGKGLEWVANMNQDGSETHYVDSVKGRLSISRDNAKKSLFLHMNSLRAEDTAVYFCARDLVPPRQDDYYYYFGMDVWGHGTTVTVSS VL: DIQMTQSPSTLSASVGDRVTITCRASQSISDWLAWYQQKPGKAPKLLIFKASTLESGVPSRFSGSGSGTEFTLTISSLQPDDFATYYCQQYNSYSRTFGQGTKVEIK
-- reply 0.000248
